Molecular target: GLP-1R (Homo sapiens, UniProt P43220)
Sequence (P43220 24-463): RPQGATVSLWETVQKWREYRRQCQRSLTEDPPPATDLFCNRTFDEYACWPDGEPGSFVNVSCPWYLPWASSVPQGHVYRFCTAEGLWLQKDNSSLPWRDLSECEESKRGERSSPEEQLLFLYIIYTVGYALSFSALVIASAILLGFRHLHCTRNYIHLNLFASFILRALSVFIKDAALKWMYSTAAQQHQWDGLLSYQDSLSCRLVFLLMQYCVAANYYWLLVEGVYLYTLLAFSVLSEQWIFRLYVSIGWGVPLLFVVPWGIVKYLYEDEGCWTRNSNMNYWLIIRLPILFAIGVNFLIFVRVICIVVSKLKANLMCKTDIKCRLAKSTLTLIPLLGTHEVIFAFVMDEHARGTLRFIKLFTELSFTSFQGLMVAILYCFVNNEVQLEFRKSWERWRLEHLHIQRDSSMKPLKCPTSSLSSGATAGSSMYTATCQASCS
Assay: GLP-1R Activation - cAMP Assay
Assay type: cell-based
Settings: cAMP increase in CHO cells stably expressing GLP-1R; each compound run on one of the two cAMP assays (Assay 1 or Assay 2, not specified)
Experimental Readout: pEC50
Value format note: pEC50 is -log10 of concentration (mol/L); just state the number.

Some solved cases for reference:
Molecule: CC1(C)COC[C@H]1n1c(Cc2c(F)cc(-c3cccc(OCc4ccc(Cl)cc4F)n3)c(F)c2F)nc2ccc(C(=O)O)cc21 [Example 247]
Experimental Target: GLP-1R (Homo sapiens, UniProt P43220)
pEC50: 9.82
//
Molecule: CC1(C)COC[C@H]1n1c(Cc2ccc(-c3ccc(F)c(OCc4cnc(-n5ccnn5)cc4Cl)n3)cc2F)nc2c(F)cc(C(=O)O)cc21 [Example 154]
Experimental Target: GLP-1R (Homo sapiens, UniProt P43220)
pEC50: 10.47
//
Molecule: CC1(C)COCC1n1c(Cc2cc(F)c(-c3cccc(OCc4ccc(C(F)(F)F)cc4F)n3)cc2F)nc2c(F)cc(C(=O)O)cc21 (stereo not drawn) [Example 175]
Experimental Target: GLP-1R (Homo sapiens, UniProt P43220)
pEC50: 9.97

Param item = Cn1nnc2ccc(COc3cccc(-c4cc(F)c(Cc5nc6ccc(C(=O)O)cc6n5C[C@@H]5CCO5)cc4F)n3)cc21 [Example 525] ; retrieve measured pEC50.
9.37

Param item = CC1(C)COC[C@H]1n1c(Cn2cc(F)c(-c3ccc(F)c(OCc4ccc(Cl)cc4)n3)cc2=O)nc2ccc(C(=O)O)cc21 [Example 300] ; retrieve measured pEC50.
9.57

Param item = COCCn1c(Cc2cc(F)c(-c3cccc(OCc4cnc(C)cn4)n3)cc2F)nc2ccc(C(=O)O)cc21 [Example 29] ; retrieve measured pEC50.
7.44
